Biological target: Muscarinic acetylcholine receptor
Test: Compound was evaluated for blocking activity on Muscarinic acetylcholine receptor in rat bladder
measuredQuantity: pA2
Reply: number alone, nothing else.

>  <compoundStructureString>
COc1ccccc1CNCCCCCCNCCCCCCCCCNCCCCCCNCc1ccccc1OC.Cl.Cl.Cl.Cl

>  <targetOrSystem>
Muscarinic acetylcholine receptor

>  <pA2>
6.08

$$$$
>  <compoundStructureString>
COc1ccccc1CNCCCCCCNCCCCCCCCCCCCNCCCCCCNCc1ccccc1OC.Cl

>  <targetOrSystem>
Muscarinic acetylcholine receptor

>  <pA2>
7.13

$$$$
>  <compoundStructureString>
COc1ccccc1CNCCCCCCNCCCCCCCCCCNCCCCCCNCc1ccccc1OC.Cl.Cl.Cl.Cl

>  <targetOrSystem>
Muscarinic acetylcholine receptor

>  <pA2>
5.49

$$$$

Proceed to the following item.
Request: Field request: pA2 | item: `COc1ccccc1CNCCCCCCNCCCCCCNCCCCCCNCc1ccccc1OC.Cl.Cl.Cl.Cl`
Result: 5.57

###

Target: Muscarinic acetylcholine receptor
Assay: Compound was evaluated for blocking activity on Muscarinic acetylcholine receptor in rat ileum
Type: tissue-based
Recorded pA2, one value per entry.
Give the value as a plain number.

Example results:
>  <compoundStructureString>
COc1ccccc1CNCCCCCCNCCCCCCCCCCNCCCCCCNCc1ccccc1OC.Cl.Cl.Cl.Cl

>  <pA2>
5.73

$$$$
>  <compoundStructureString>
COc1ccccc1CNCCCCCCNCCCCCCCCCCCCNCCCCCCNCc1ccccc1OC.Cl

>  <pA2>
7.62

$$$$
>  <compoundStructureString>
COc1ccccc1CNCCCCCCNCCCCCCNCCCCCCNCc1ccccc1OC.Cl.Cl.Cl.Cl

>  <pA2>
5.29

$$$$

Then there is this compound:
Request: Would you kindly share the measured pA2 for `COc1ccccc1CNCCCCCCNCCCCCCCCCNCCCCCCNCc1ccccc1OC.Cl.Cl.Cl.Cl` ?
Result: 5.81

###

Below, each entry is listed with its recorded pA2.
Biological target: Muscarinic acetylcholine receptor
Assay: Compound was evaluated for blocking activity on Muscarinic acetylcholine receptor in guinea pig atria
Format: protein assay, Cavia porcellus
Give the figure only, with no unit attached.

Examples with answers:
>  <compoundStructureString>
COc1ccccc1CNCCCCCCNCCCCCCCCCCCCNCCCCCCNCc1ccccc1OC.Cl

>  <targetOrSystem>
Muscarinic acetylcholine receptor

>  <measuredQuantity>
pA2

>  <assayValue>
7.35

$$$$
>  <compoundStructureString>
COc1ccccc1CNCCCCCCNCCCCCCCCCCNCCCCCCNCc1ccccc1OC.Cl.Cl.Cl.Cl

>  <targetOrSystem>
Muscarinic acetylcholine receptor

>  <measuredQuantity>
pA2

>  <assayValue>
7.71

$$$$
>  <compoundStructureString>
COc1ccccc1CNCCCCCCNCCCCCCCCCNCCCCCCNCc1ccccc1OC.Cl.Cl.Cl.Cl

>  <targetOrSystem>
Muscarinic acetylcholine receptor

>  <measuredQuantity>
pA2

>  <assayValue>
7.96

$$$$

Attention now shifts to the item below.
Request: For Muscarinic acetylcholine receptor, provide pA2 of `COc1ccccc1CNCCCCCCNCCCCCCNCCCCCCNCc1ccccc1OC.Cl.Cl.Cl.Cl` please.
Result: 6.87
